For each record, write down the corresponding log10(IC50).
Target: human cloned 5-HT2C receptor, expressed in CHO cells (Homo sapiens)
Construct: expressed in transfected cells; host or cells: CHO cells
Sequence (P28335 33-458): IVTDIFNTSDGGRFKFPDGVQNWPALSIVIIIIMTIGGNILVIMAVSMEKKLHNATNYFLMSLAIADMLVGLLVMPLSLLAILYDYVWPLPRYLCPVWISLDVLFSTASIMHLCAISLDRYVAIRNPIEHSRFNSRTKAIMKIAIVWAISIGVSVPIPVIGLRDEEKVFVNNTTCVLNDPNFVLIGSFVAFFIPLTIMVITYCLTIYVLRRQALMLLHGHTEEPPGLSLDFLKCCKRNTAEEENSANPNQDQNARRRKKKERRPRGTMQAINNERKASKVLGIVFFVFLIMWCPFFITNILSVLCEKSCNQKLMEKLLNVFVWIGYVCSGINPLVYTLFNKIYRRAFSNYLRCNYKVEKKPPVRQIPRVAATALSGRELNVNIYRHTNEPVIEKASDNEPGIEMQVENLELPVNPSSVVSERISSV
Test: In vitro binding affinity for 5-HT2C receptor ([3H]mesulergine radioligand binding)
Details: human cloned 5-HT2C receptor, read-out: 5-HT2C pIC50 (converted)
Response schema: value (number) is log10 of IC50 in units of nM.

Please review the following examples before continuing.
# compound, log10(IC50)
measured = [
    ("Fc1ccc2c(c1)C1OC(CN3CCN(Cc4ccc(-c5ccc(Cl)cc5)o4)CC3)CC1c1ccccc1C2 (centres unmarked) [Compound 62]", 2.03),
    ("COc1ccc(CNC(=O)N2CCN(CC3CC4c5ccccc5Cc5ccc(F)cc5C4O3)CC2)c(OC)c1 (centres unmarked) [Compound 96]", 0.83),
    ("O=S(=O)(Cc1ccccc1)N1CCN(CC2CC3c4ccccc4Cc4ccc(F)cc4C3O2)CC1 (centres unmarked) [Compound 105]", 1.49),
    ("O=C(NC1CCCCCCC1)N1CCN(C[C@H]2C[C@@H]3c4ccccc4Cc4ccc(F)cc4[C@@H]3O2)CC1 [Compound 98]", 1.29),
    ("C=CC1(O)CCN(CC2CC3c4ccccc4Cc4ccc(F)cc4C3O2)C1 (centres unmarked) [Compound 40]", -0.56),
]

Would you mind giving log10(IC50) for every compound in the list below?
1. O=C(NCCN1CCOCC1)C1CCN(CC2CC3c4ccccc4Cc4ccc(F)cc4C3O2)CC1 (centres unmarked) [Compound 181]
2. Fc1ccc2c(c1)C1OC(CN3CCC(Oc4ccccc4F)C3)CC1c1ccccc1C2 (mixture of isomers) [Compound 34]
3. COC1CCN(C[C@H]2C[C@@H]3c4ccccc4Cc4ccc(F)cc4[C@@H]3O2)C1 (some centres unmarked) [Compound 4]

[A]
0.88
-0.37
0.32

* * *

For each record, write down the corresponding IC50.
Target: human cloned 5-HT2C receptor, expressed in CHO cells (Homo sapiens)
Construct: expressed in transfected cells; host or cells: CHO cells
Assay: In vitro binding affinity for 5-HT2C receptor ([3H]mesulergine radioligand binding)
Conditions: human cloned 5-HT2C receptor, read-out: 5-HT2C pIC50 (converted)
Numbers only, in nM.

Please review the following examples before continuing.
# molecule, measured.on, IC50 (nM)
measured = [
    ("Fc1ccc2c(c1)C1OC(CN3CCN(C(=S)NC4CCCCC4)CC3)CC1c1ccccc1C2 (stereo not drawn) [Compound 114]", "human cloned 5-HT2C receptor, expressed in CHO cells (Homo sapiens)", 20.9),
    ("O=C(C1CCN(CC2CC3c4ccccc4Cc4ccc(F)cc4C3O2)CC1)N1CCN(CC=Cc2ccccc2)CC1 (stereo not drawn) [Compound 204]", "human cloned 5-HT2C receptor, expressed in CHO cells (Homo sapiens)", 10.5),
    ("CCOC(=O)C1CCCCN1C(=O)C1CCN(CC2CC3c4ccccc4Cc4ccc(F)cc4C3O2)CC1 (mixture of isomers) [Compound 205]", "human cloned 5-HT2C receptor, expressed in CHO cells (Homo sapiens)", 4.47),
    ("CCN(CC)CCN(C)C(=O)C1CCN(CC2CC3c4ccccc4Cc4ccc(F)cc4C3O2)CC1 (stereo not drawn) [Compound 199]", "human cloned 5-HT2C receptor, expressed in CHO cells (Homo sapiens)", 1.2),
    ("CCOC(=O)C1CCCCN1CC1CC2c3ccccc3Cc3ccc(F)cc3C2O1 (mixture of isomers) [Compound 158]", "human cloned 5-HT2C receptor, expressed in CHO cells (Homo sapiens)", 33.1),
    ("CS(=O)(=O)N1CCN(CC2CC3c4ccccc4Cc4ccc(F)cc4C3O2)CC1 (stereo not drawn) [Compound 102]", "human cloned 5-HT2C receptor, expressed in CHO cells (Homo sapiens)", 12.6),
    ("N#Cc1ccc(C(=O)NC2CCN(CC3CC4c5ccccc5Cc5ccc(F)cc5C4O3)CC2)cc1 (stereo not drawn) [Compound 236]", "human cloned 5-HT2C receptor, expressed in CHO cells (Homo sapiens)", 9.55),
    ("CCOC(=O)CNC(=S)N1CCN(CC2CC3c4ccccc4Cc4ccc(F)cc4C3O2)CC1 (stereo not drawn) [Compound 110]", "human cloned 5-HT2C receptor, expressed in CHO cells (Homo sapiens)", 47.9),
    ("O=C(NCCC(c1ccccc1)c1ccccc1)C1CCN(CC2CC3c4ccccc4Cc4ccc(F)cc4C3O2)CC1 (stereo not drawn) [Compound 198]", "human cloned 5-HT2C receptor, expressed in CHO cells (Homo sapiens)", 16.2),
    ("COCC1CCCN1CC1CC2c3ccccc3Cc3ccc(F)cc3C2O1 (mixture of isomers) [Compound 38]", "human cloned 5-HT2C receptor, expressed in CHO cells (Homo sapiens)", 15.5),
]

Would you mind giving IC50 for every molecule in the list below?
1. COc1ccccc1N1CCN(C(=O)C2CCN(CC3CC4c5ccccc5Cc5ccc(F)cc5C4O3)CC2)CC1 (stereo not drawn) [Compound 203]
2. O=C(NC1CCN(CC2CC3c4ccccc4Cc4ccc(F)cc4C3O2)CC1)NC1CC1c1ccccc1 (mixture of isomers) [Compound 246]

[A]
[3.09, 5.75]

Would you mind giving IC50 for every molecule in the list below?
1. CSc1nccc(N2CCN(CC3CC4c5ccccc5Cc5ccc(F)cc5C4O3)CC2)n1 (stereo not drawn) [Compound 124]
2. O=C(NCC(O)CO)C1CCN(CC2CC3c4ccccc4Cc4ccc(F)cc4C3O2)CC1 (stereo not drawn) [Compound 179]
3. Fc1ccc2c(c1)C1OC(CN3CCOC(CCOc4ccccc4)C3)CC1c1ccccc1C2 (mixture of isomers) [Compound 131]
4. CCOC(=O)C1CCN(C[C@H]2C[C@@H]3c4ccccc4Cc4ccc(F)cc4[C@@H]3O2)CC1 [Compound 162]
5. O=C(O)C1CCN(C[C@H]2C[C@@H]3c4ccccc4Cc4ccc(F)cc4[C@@H]3O2)CC1 [Compound 157]
6. Fc1ccc2c(c1)C1OC(CN3CCN(C(=S)NCc4ccccc4)CC3)CC1c1ccccc1C2 (stereo not drawn) [Compound 113]
7. COC(=O)C1CCN(C[C@H]2C[C@@H]3c4ccccc4Cc4ccc(F)cc4[C@@H]3O2)C1 (stereo partly drawn) [Compound 12]

[A]
[30.9, 3.8, 30.9, 1.02, 7.24, 24, 2.04]

Would you mind giving IC50 for every molecule in the list below?
1. COc1cccc(N2CCN(CC3CC4c5ccccc5Cc5ccc(F)cc5C4O3)CC2)n1 (stereo not drawn) [Compound 118]
2. COC(CNC(=O)N1CCN(CC2CC3c4ccccc4Cc4ccc(F)cc4C3O2)CC1)OC (stereo not drawn) [Compound 91]

[A]
1: 7.59; 2: 14.8

Would you mind giving IC50 for every molecule in the list below?
1. CS(=O)(=O)CCCCNC(=S)NC1CCN(CC2CC3c4ccccc4Cc4ccc(F)cc4C3O2)CC1 (stereo not drawn) [Compound 251]
2. CC(=O)N1CCC(C(=O)NC2CCN(CC3CC4c5ccccc5Cc5ccc(F)cc5C4O3)CC2)CC1 (stereo not drawn) [Compound 224]
3. COc1cc2c(cc1OC)CN(C[C@H]1C[C@@H]3c4ccccc4Cc4ccc(F)cc4[C@@H]3O1)CC2 [Compound 276]
4. O=C(C1CC1)N1CCN(C[C@H]2C[C@@H]3c4ccccc4Cc4ccc(F)cc4[C@@H]3O2)CC1 [Compound 78]
5. CCOC(=O)C1CCCN(C[C@H]2C[C@@H]3c4ccccc4Cc4ccc(F)cc4[C@@H]3O2)C1 (stereo partly drawn) [Compound 160]
6. Fc1ccc(OCC2CCN(CC3CC4c5ccccc5Cc5ccc(F)cc5C4O3)C2)cc1 (stereo not drawn) [Compound 26]
7. COCC1(O)CCN(C[C@H]2C[C@@H]3c4ccccc4Cc4ccc(F)cc4[C@@H]3O2)CC1 [Compound 272]
8. O=C(NC1CCCCCC1)C1CCN(CC2CC3c4ccccc4Cc4ccc(F)cc4C3O2)CC1 (stereo not drawn) [Compound 193]

[A]
8.51
12.9
1.15
8.91
2.88
5.62
0.741
2.63

[Q] Please list IC50 recorded for the molecule N#Cc1ccc(NC(=O)NC2CCN(CC3CC4c5ccccc5Cc5ccc(F)cc5C4O3)CC2)cc1 (stereo not drawn) [Compound 248]
[A] 6.17
